The measurements presented in this section are drawn from patent US20180009871A1.

Target: human glucagon receptor (GCGR) (human, UniProt P47871 26-477)
Assay: cell-based or functional assay
Where no end group is shown, it is not given here. [ ]: non-standard residue; d: D form. Formula III = not defined here; Formula II = not defined here; Aib = CC(C)(N)C(=O)O
Rule: true for GluR pEC 50 not less than 10 pEC50, false for anything less.

Worked examples, 4 binders total:
YSHGTFTSDYSKYLDK(Formula II)KRAQEFVIWLEDEPSSGAPPPS (reading uncertain) [Compound B26]	true
YSHGTFTSDYSKYLDSARAQEFVK(Formula II)WLEDEPSSGAPPPS-NH2 (reading uncertain) [Compound B42]	false
YSHGTFTSDYSKYLDSARAQEFVK(Formula III)WLEDEPSSGAPPPS-NH2 (reading uncertain) [Compound B46]	false
YSHGTFTSDYSKYLDK(Formula II)KYAQEFV[Aib]WLEDEPSSGAPPPS-OH (reading uncertain) [Compound B3]	true

Read the next record carefully.
Determine whether measured GluR pEC 50 meets or exceeds 10 pEC50 for YSQGTFTSDK(Formula II)SKYLDAARAQEFVKWLEDEPKSKSPPPS-NH2 (reading uncertain) [Compound B36]
true
